Tested target: HIV-1 protease (Human immunodeficiency virus type 1 group M subtype B)
Assay method text: inhibition constants against HIV-1 protease (method of Pennington et al.)
Format: biochemical
Test conditions: Inhibition constant measured at pH 6.0
pKi listing for selected molecules.
Note on pKi: it is the negative log10 of concentration, concentration in mol/L.

Qu. Note pKi for the molecule shown: C=CCN1C[C@H](Cc2ccccc2)N(CC(O)CN2CCN(Cc3cccnc3)CC2C(=O)NC(C)(C)C)C1=O (stereo partly shown)
Ans. 5.74

Qu. Note pKi for the molecule shown: C=CCN1C[C@H](Cc2ccccc2)N(CC(O)CN2C[C@H]3CCCC[C@H]3CC2C(=O)NC(C)(C)C)C1=O (stereo partly shown)
Ans. 6.74

Qu. Note pKi for the molecule shown: CCCC1CC(Cc2ccccc2)N(CC(=O)C(=O)N2CSCC2C(=O)NC(C)(C)C)C1=O (stereo not shown)
Ans. 5.07

Qu. Note pKi for the molecule shown: C=CCN1CC(Cc2ccccc2)N(CC(O)CC(Cc2ccccc2)C(=O)NC2c3ccccc3CC2O)C1=O (stereo not shown)
Ans. 8.00

Qu. Note pKi for the molecule shown: CC(C)(C)NC(=O)C1C[C@@H]2CCCC[C@@H]2CN1CC(O)CN1[C@@H](Cc2ccccc2)CN(Cc2ccccc2)S1(=O)=O (stereo partly shown)
Ans. 6.25

Qu. Note pKi for the molecule shown: CC(C)(C)NC(=O)C1CSCN1C(=O)C(=O)CN1C(=O)C(Cc2ccccc2)CC1Cc1ccccc1 (stereo not shown)
Ans. 6.60

Qu. Note pKi for the molecule shown: CC(C)(C)NC(=O)C1C[C@@H]2CCCC[C@@H]2CN1CC(O)CN1C(=O)N(Cc2ccccc2)C[C@@H]1Cc1ccccc1 (stereo partly shown)
Ans. 6.60

Qu. Note pKi for the molecule shown: C=CCC1C[C@H](Cc2ccccc2)N(CC(O)CN2C[C@H]3CCCC[C@H]3CC2C(=O)NC(C)(C)C)C1=O (stereo partly shown)
Ans. 8.30

Qu. Note pKi for the molecule shown: CC(C)(C)NC(=O)C1CSCN1C(=O)C(O)CN1C(=O)C(Cc2ccccc2)CC1Cc1ccccc1 (stereo not shown)
Ans. 5.92

Qu. Note pKi for the molecule shown: C=CCC1C[C@H](Cc2ccccc2)N(CC(O)CN2CCN(Cc3cccnc3)CC2C(=O)NC(C)(C)C)C1=O (stereo partly shown)
Ans. 7.05

Just for reference, patent US5945413A is where these values come from.
